# TARGET ENTITY: tissue-nonspecific alkaline phosphatase (TNAP) (Homo sapiens, UniProt P05186)
# Construct: dialyzed serum-free conditioned medium
# Sequence (P05186 18-502 limits assumed): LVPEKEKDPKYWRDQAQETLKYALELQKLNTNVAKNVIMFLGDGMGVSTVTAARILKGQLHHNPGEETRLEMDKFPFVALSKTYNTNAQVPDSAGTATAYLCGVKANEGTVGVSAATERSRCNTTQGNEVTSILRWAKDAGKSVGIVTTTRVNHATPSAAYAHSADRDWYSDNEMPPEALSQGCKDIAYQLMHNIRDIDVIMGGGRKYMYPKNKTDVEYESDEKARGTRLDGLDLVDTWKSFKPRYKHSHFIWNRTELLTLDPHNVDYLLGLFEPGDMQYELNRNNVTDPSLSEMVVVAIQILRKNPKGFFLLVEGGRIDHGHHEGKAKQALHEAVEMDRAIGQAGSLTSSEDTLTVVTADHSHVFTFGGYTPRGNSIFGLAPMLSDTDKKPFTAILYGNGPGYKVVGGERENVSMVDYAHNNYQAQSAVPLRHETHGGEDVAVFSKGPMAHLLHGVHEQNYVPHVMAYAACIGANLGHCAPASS
# EXPERIMENTAL PROTOCOL: TNAP inhibition screening assay (colorimetric pNPP / luminescence CDP-star), IC50
# ASSAY CONDITIONS: Tables A-H; tissue-nonspecific alkaline phosphatase inhibitors
pIC50: −log10 of the molar value.
Listing: pIC50 of selected compounds

COMPOUND: O=C(O)c1cc(-c2ccc(Cl)cc2)n[nH]1
TARGET ENTITY: tissue-nonspecific alkaline phosphatase (TNAP) (Homo sapiens, UniProt P05186)
pIC50: 6.02

COMPOUND: CCCSc1nnc(NC(C)=O)[nH]1
TARGET ENTITY: tissue-nonspecific alkaline phosphatase (TNAP) (Homo sapiens, UniProt P05186)
pIC50: 6.17

COMPOUND: Cc1nc2c3cnn(-c4ccc(C)c(C)c4)c3ncn2n1
TARGET ENTITY: tissue-nonspecific alkaline phosphatase (TNAP) (Homo sapiens, UniProt P05186)
pIC50: 4.89

COMPOUND: COc1ccc(-c2nc3n(n2)C(=O)CC(c2ccco2)S3)cc1 (stereo not shown)
TARGET ENTITY: tissue-nonspecific alkaline phosphatase (TNAP) (Homo sapiens, UniProt P05186)
pIC50: 5.42

COMPOUND: Nc1nc(CSc2n[nH]c(-c3ccccc3)n2)nc(Nc2ccccc2)n1
TARGET ENTITY: tissue-nonspecific alkaline phosphatase (TNAP) (Homo sapiens, UniProt P05186)
pIC50: 5.69

COMPOUND: COc1ccc(-c2nnc3oc(O)cc(C)c2-3)cc1
TARGET ENTITY: tissue-nonspecific alkaline phosphatase (TNAP) (Homo sapiens, UniProt P05186)
pIC50: 5.87

COMPOUND: O=C(O)c1cc(-c2ccccc2Cl)n[nH]1
TARGET ENTITY: tissue-nonspecific alkaline phosphatase (TNAP) (Homo sapiens, UniProt P05186)
pIC50: 6.17

COMPOUND: O=C(CCCn1c(SCC(=O)c2ccc(O)c(O)c2)nc2ccccc2c1=O)NCC1CCCO1 (stereo not shown)
TARGET ENTITY: tissue-nonspecific alkaline phosphatase (TNAP) (Homo sapiens, UniProt P05186)
pIC50: 5.33

COMPOUND: COc1ccc(OC)c(C(=O)CSc2nc3ccc[nH]c-3n2)c1
TARGET ENTITY: tissue-nonspecific alkaline phosphatase (TNAP) (Homo sapiens, UniProt P05186)
pIC50: 5.33

COMPOUND: COC(=O)c1cc(-c2c[nH]c3ccccc23)[nH]n1
TARGET ENTITY: tissue-nonspecific alkaline phosphatase (TNAP) (Homo sapiens, UniProt P05186)
pIC50: 6.09

COMPOUND: Cc1cc(NC(=O)COC(=O)c2[nH]nc3ccccc23)no1
TARGET ENTITY: tissue-nonspecific alkaline phosphatase (TNAP) (Homo sapiens, UniProt P05186)
pIC50: 5.03

COMPOUND: COc1cc(CSc2nnc[nH]2)c(OC)cc1CSc1nnc[nH]1
TARGET ENTITY: tissue-nonspecific alkaline phosphatase (TNAP) (Homo sapiens, UniProt P05186)
pIC50: 5.70

COMPOUND: COc1ccccc1-c1nnc(NC(C)=O)[nH]1
TARGET ENTITY: tissue-nonspecific alkaline phosphatase (TNAP) (Homo sapiens, UniProt P05186)
pIC50: 5.70

COMPOUND: Cn1ncc2c1ncn1c(-c3ccccc3Cl)nnc21
TARGET ENTITY: tissue-nonspecific alkaline phosphatase (TNAP) (Homo sapiens, UniProt P05186)
pIC50: 5.23

COMPOUND: CC(C)C1N=C2c3ccccc3N=C(SCC(=O)c3ccc(O)c(O)c3)N2C1=O (stereo not shown)
TARGET ENTITY: tissue-nonspecific alkaline phosphatase (TNAP) (Homo sapiens, UniProt P05186)
pIC50: 4.99

COMPOUND: Oc1cc(-c2cccc3ccccc23)n[nH]1
TARGET ENTITY: tissue-nonspecific alkaline phosphatase (TNAP) (Homo sapiens, UniProt P05186)
pIC50: 5.49

COMPOUND: CC1(C)Cc2c(sc3cc4n(c(=N)c23)CCCCC4)CO1
TARGET ENTITY: tissue-nonspecific alkaline phosphatase (TNAP) (Homo sapiens, UniProt P05186)
pIC50: 5.02

COMPOUND: O=C(CSc1nnc(-c2ccccc2Br)[nH]1)NC(=O)NCc1ccco1
TARGET ENTITY: tissue-nonspecific alkaline phosphatase (TNAP) (Homo sapiens, UniProt P05186)
pIC50: 5.60

COMPOUND: COc1ccc(OC)c(S(=O)(=O)Nc2ccc(O)c(Sc3nc[nH]n3)c2)c1
TARGET ENTITY: tissue-nonspecific alkaline phosphatase (TNAP) (Homo sapiens, UniProt P05186)
pIC50: 5.07
